# reported pIC50; entries follow
- target-under-test: CDK1/CyclinB1 (Homo sapiens)
- assay-protocol: CDKi biochemical assay (TR-FRET, phosphorylation of S780 on RB1 peptide)
- measurement-context: CDK1/CyclinB1 10 pM, 1 mM ATP, 60 min at 25° C.
Bear in mind: pIC50 is minus log10 of a mol/L concentration; give just that figure.

Request: Fill in: pIC50 of `O=C1N([C@@H]2CCC[C@@H](O)C2)c2nc(Nc3c[nH]nc3OCC(F)(F)F)ncc2C12CC2` is ___
Result: 6.10

Request: Next entry: `C[C@]1(O)C[C@H](COc2n[nH]cc2Nc2ncc3c(n2)N([C@@H]2CCC[C@@H](O)C2)C(=O)C32CC2)C1`
Result: 5.35
